These data points were gathered from PubChem BioAssay AID2060351.

tested on: 521955-158-R7-J2-PDC spheroids, viability % test/control; experiment: Anticancer human tumor 521955-158-R7-J2-PDC patient-derived pancreatic carcinoma cell line growth inhibition [TAK]; conditions: second compound 30 µM; first compound 0.00316 µM; stronger effect = lower value; spheroids with HUVEC and MSC
// reported viability, T/C per item
experimental endpoint: viability, T/C (%)

1. COc1c(OCCCN2CCOCC2)ccc2c3n(c(=NC(=O)c4cnc(N)nc4)nc12)CCN3 + CC(C)NCC(C(=O)N1CCN(c2ncnc3c2C(C)CC3O)CC1)c1ccc(Cl)cc1 | 50.4
2. CC(C)n1nc(-c2ccc3oc(N)nc3c2)c2c(N)ncnc21 + CC(C)NCC(C(=O)N1CCN(c2ncnc3c2C(C)CC3O)CC1)c1ccc(Cl)cc1 | 103
3. CC(C)CC(NC(=O)CNC(=O)c1cc(Cl)ccc1Cl)B1OC(=O)CC(CC(=O)O)(C(=O)O)O1 (stereo not given) + CC(C)NCC(C(=O)N1CCN(c2ncnc3c2C(C)CC3O)CC1)c1ccc(Cl)cc1 | 88.7
4. COC1CC2CCC(C)C(O)(O2)C(=O)C(=O)N2CCCCC2C(=O)OC(C(C)CC2CCC(OCCO)C(OC)C2)CC(=O)C(C)C=C(C)C(O)C(OC)C(=O)C(C)CC(C)C=CC=CC=C1C (stereo not given) + CC(C)NCC(C(=O)N1CCN(c2ncnc3c2C(C)CC3O)CC1)c1ccc(Cl)cc1 | 98.2
5. CC(C)CC(NC(=O)C(Cc1ccccc1)NC(=O)c1cnccn1)B(O)O (stereo not given) + CC(C)NCC(C(=O)N1CCN(c2ncnc3c2C(C)CC3O)CC1)c1ccc(Cl)cc1 | 84.1

----------
system: 521955-158-R7-J2-PDC spheroids, viability % test/control; assay: Anticancer human tumor 521955-158-R7-J2-PDC cell line growth inhibition [TAK]; conditions: second compound 3 µM; first compound 1 µM; stronger effect = lower value; spheroids with HUVEC and MSC;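 also: spheroids exposed to compound for 7 days before readout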;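 as to viability, T/C: 100% = DMSO vehicle control wells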
viability, T/C values for the compounds below.
experimental endpoint: viability, T/C

1. Cc1nc(NC(=O)N2CCCC2C(N)=O)sc1-c1ccnc(C(C)(C)C(F)(F)F)c1 (centres undefined) + CC(C)NCC(C(=O)N1CCN(c2ncnc3c2C(C)CC3O)CC1)c1ccc(Cl)cc1 | 57.3%
2. COc1c(OCCCN2CCOCC2)ccc2c3n(c(=NC(=O)c4cnc(N)nc4)nc12)CCN3 + CC(C)NCC(C(=O)N1CCN(c2ncnc3c2C(C)CC3O)CC1)c1ccc(Cl)cc1 | 10.4%
3. CCCS(=O)(=O)Nc1ccc(F)c(C(=O)c2c[nH]c3ncc(-c4ccc(Cl)cc4)cc23)c1F + CC(C)NCC(C(=O)N1CCN(c2ncnc3c2C(C)CC3O)CC1)c1ccc(Cl)cc1 | 89.1%
4. CC(C)(C)c1nc(-c2cccc(NS(=O)(=O)c3c(F)cccc3F)c2F)c(-c2ccnc(N)n2)s1 + CC(C)NCC(C(=O)N1CCN(c2ncnc3c2C(C)CC3O)CC1)c1ccc(Cl)cc1 | 130%

----------
Tested on: 521955-158-R7-J2-PDC spheroids, viability % test/control
Experiment: Anticancer human tumor 521955-158-R7-J2-PDC cell line growth inhibition [TAK];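 also: spheroids exposed to compound for 7 days before readout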
Conditions: curve of compound; spheroids with HUVEC and MSC
Description: Combinatorial screen of targeted agents with TAK-243 and ipatasertib in multi-cell type tumor spheroids […] Compounds. […] If the clinical Cmax for an agent had not been determined, the highest concentration tested was 10 microM. NCI60 Cell Culture. […] The optimal seeding densities for each of the cell lines at each time point assessed were determined prior to performing the concentration response studies. […]
pIC50: −log10 of the molar value.
experimental endpoint: pIC50

1) COC1CC2CCC(C)C(O)(O2)C(=O)C(=O)N2CCCCC2C(=O)OC(C(C)CC2CCC(OCCO)C(OC)C2)CC(=O)C(C)C=C(C)C(O)C(OC)C(=O)C(C)CC(C)C=CC=CC=C1C (centres undefined) | < 7.00
2) CC(C)n1nc(-c2ccc3oc(N)nc3c2)c2c(N)ncnc21 | < 7.00
3) CC(C)(C)c1nc(-c2cccc(NS(=O)(=O)c3c(F)cccc3F)c2F)c(-c2ccnc(N)n2)s1 | < 5.00
4) CCCS(=O)(=O)Nc1ccc(F)c(C(=O)c2c[nH]c3ncc(-c4ccc(Cl)cc4)cc23)c1F | < 4.00
